- STUDY SYSTEM: JAK3 (Homo sapiens, UniProt P52333)
- TEST DETAILS: JAK3 kinase ADP-Glo assay (Example 60)
- Sequence (P52333 795-1124 limits assumed): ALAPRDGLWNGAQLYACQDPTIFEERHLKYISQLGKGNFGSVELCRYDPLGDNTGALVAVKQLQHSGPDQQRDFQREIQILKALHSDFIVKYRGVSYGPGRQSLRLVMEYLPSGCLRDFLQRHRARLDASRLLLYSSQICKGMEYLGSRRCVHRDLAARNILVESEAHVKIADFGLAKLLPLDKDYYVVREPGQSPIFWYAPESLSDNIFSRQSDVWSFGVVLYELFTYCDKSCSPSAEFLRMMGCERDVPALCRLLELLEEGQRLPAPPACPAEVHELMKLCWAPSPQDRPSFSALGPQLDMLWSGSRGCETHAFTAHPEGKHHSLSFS
pIC50: −log10 of the molar value.
READOUT: pIC50

// solved cases for pIC50 follow
CCc1cc(O)c(F)cc1-c1ccc2c(-c3nc4c([nH]3)CN(C(=O)NC3CCC3)C4)n[nH]c2c1 [MDI-260]: 8.61
CCc1cc(O)c(F)cc1-c1ccc2c(-c3nc4c([nH]3)CN(C(=O)CC(C)C)C4)n[nH]c2c1 [MDI-230]: 9.09
CCc1cc(O)c(F)cc1-c1ccc2c(-c3nc4c([nH]3)CN(C(=O)N3CCC3)C4)n[nH]c2c1 [MDI-232]: 9.06

1: CCc1cc(O)c(F)cc1-c1cc2[nH]nc(-c3nc4c([nH]3)CN(C(=O)C3CC3)C4)c2cn1 [MDI-242]
2: CCc1cc(O)c(F)cc1-c1ccc2c(-c3nc4c([nH]3)CN(C(=O)N3CCCC3)C4)n[nH]c2c1 [MDI-231]
3: CCc1cc(O)c(F)cc1-c1ccc2c(-c3nc4c([nH]3)CN(C(=O)NCCO)C4)n[nH]c2c1 [MDI-248]
4: CCc1cc(O)c(F)cc1-c1ccc2c(-c3nc4c([nH]3)CN(C(=O)N3CCCCC3)C4)n[nH]c2c1 [MDI-233]
Provide the items ranked by increasing pIC50. Return value: ordered labels per request.
1, 4, 2, 3

====

- STUDY SYSTEM: UniProt P23458
- TEST DETAILS: JAK1 kinase ADP-Glo assay (Example 60)
READOUT: IC50 (nM)

// solved cases for IC50 follow
CCc1cc(O)c(F)cc1-c1ccc2c(-c3nc4c([nH]3)CN(S(=O)(=O)C3CC3)C4)n[nH]c2c1: 0.825
CCc1cc(O)c(F)cc1-c1ccc2c(-c3nc4c([nH]3)CN(C(=O)N3CCN(CC)CC3)C4)n[nH]c2c1: 0.0403

A: CCNC(=O)N1Cc2nc(-c3n[nH]c4cc(-c5cc(F)c(O)cc5CC)ccc34)[nH]c2C1
B: CCc1cc(O)c(F)cc1-c1ccc2c(-c3nc4c([nH]3)CN(C(=O)N3CC[C@H](O)C3)C4)n[nH]c2c1
C: CCc1cc(O)c(F)cc1-c1ccc2c(-c3nc4c([nH]3)CN(S(=O)(=O)C3CCCC3)C4)n[nH]c2c1
Provide the items ranked by increasing IC50. Return value: ordered labels per request.
B, A, C
(B: 0.134 nM, A: 0.557 nM, C: 2.02 nM)

I: CCc1cc(O)c(F)cc1-c1cc2[nH]nc(-c3nc4c([nH]3)CN(C(=O)C3CC3)C4)c2cn1
II: CCc1cc(O)c(F)cc1-c1cc(C)c2c(-c3nc4c([nH]3)CN(C(=O)N3CC[C@H](O)C3)C4)n[nH]c2c1
Kindly identify the item with the lower IC50 figure among these two: I and II # reply format: chosen label
II
(II: 0.45 nM, I: 67.2 nM)

I: CCc1cc(O)c(F)cc1-c1ccc2c(-c3nc4c([nH]3)CN(C(=O)N3CC(C#N)C3)C4)n[nH]c2c1
II: CCc1cc(O)c(F)cc1-c1ccc2c(-c3nc4c([nH]3)CN(C(=O)NCCO)C4)n[nH]c2c1
Could you kindly indicate whether I or II has the higher IC50 value? # reply format: chosen label
I

a: CCc1cc(O)c(F)cc1-c1ccc2c(-c3nc4c([nH]3)CN(C(=O)[C@@H]3CCCN3)C4)n[nH]c2c1
b: CCc1cc(O)c(F)cc1-c1ccc2c(-c3nc4c([nH]3)CN(C(=O)OC)C4)n[nH]c2c1
Kindly identify the item with the lower IC50 figure among these two: a and b # reply format: chosen label
a
(a: 0.319 nM, b: 1.8 nM)

====

- STUDY SYSTEM: JAK1 (Homo sapiens, UniProt P23458)
- Sequence (P23458 850-1154 limits assumed): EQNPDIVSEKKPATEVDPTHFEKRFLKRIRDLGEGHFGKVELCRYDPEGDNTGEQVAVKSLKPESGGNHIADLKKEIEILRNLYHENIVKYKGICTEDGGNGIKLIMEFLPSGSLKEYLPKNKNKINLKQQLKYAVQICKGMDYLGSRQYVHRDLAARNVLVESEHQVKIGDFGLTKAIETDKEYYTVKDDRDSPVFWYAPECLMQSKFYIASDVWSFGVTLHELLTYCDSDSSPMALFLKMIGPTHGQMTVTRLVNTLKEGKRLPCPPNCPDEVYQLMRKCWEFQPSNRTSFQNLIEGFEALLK
- TEST DETAILS: JAK1 kinase ADP-Glo assay (Example 60)
READOUT: IC50 (nM)

// solved cases for IC50 follow
CCc1cc(O)c(F)cc1-c1ccc2c(-c3nc4c([nH]3)CN(CC3CCC3)C4)n[nH]c2c1: 0.347
CCc1cc(O)c(F)cc1-c1ccc2c(-c3nc4c([nH]3)CN(C(=O)c3ccnnc3)C4)n[nH]c2c1: 0.303

1: CCc1cc(O)c(F)cc1-c1ccc2c(-c3nc4c([nH]3)CN(C(=O)CC3CC3)C4)n[nH]c2c1
2: CCc1cc(O)c(F)cc1-c1ccc2c(-c3nc4c([nH]3)CN(CC3CC3)C4)n[nH]c2c1
Could you kindly indicate whether 1 or 2 has the higher IC50 value? # reply format: chosen label
1
(1: 0.753 nM, 2: 0.153 nM)

====

- STUDY SYSTEM: TYK2 (Homo sapiens)
- Construct: purchased Invitrogen PV4790
- TEST DETAILS: TYK2 kinase ADP-Glo assay (Example 59)
- Assay type: biochemical
- PROTOCOL CONDITIONS: TYK2 (Invitrogen) 4 nM, ATP 10 μM, IRS1 0.03 mg/mL, 25° C. 60 min, read-out: IC50 (nM), TYK2 Experiment
- Sequence (P29597 833-1187 limits assumed): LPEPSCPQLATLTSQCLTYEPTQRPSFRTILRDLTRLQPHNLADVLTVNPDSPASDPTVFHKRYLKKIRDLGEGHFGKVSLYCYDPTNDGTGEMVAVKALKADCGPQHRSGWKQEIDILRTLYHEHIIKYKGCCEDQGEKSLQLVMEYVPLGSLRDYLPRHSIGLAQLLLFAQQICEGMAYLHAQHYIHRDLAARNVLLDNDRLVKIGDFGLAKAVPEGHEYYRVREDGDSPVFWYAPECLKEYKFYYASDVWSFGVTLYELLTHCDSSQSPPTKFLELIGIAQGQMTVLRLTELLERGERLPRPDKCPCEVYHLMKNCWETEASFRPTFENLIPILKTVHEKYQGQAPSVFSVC
READOUT: IC50 (nM)

CCc1cc(O)c(F)cc1-c1ccc2c(-c3nc4c([nH]3)CN(C(=O)C3CCC3)C4)n[nH]c2c1: 0.266
CCc1cc(O)ccc1-c1ccc2c(-c3nc4c([nH]3)CN(C(=O)c3cnc(N5CCN(C)CC5)cn3)C4)n[nH]c2c1: 0.194

a: CCc1cc(O)c(F)cc1-c1ccc2c(-c3nc4c([nH]3)CN(C(=O)C3CC3)C4)n[nH]c2c1
b: CCc1cc(O)c(F)cc1-c1ccc2c(-c3nc4c([nH]3)CN(C(=O)c3cnc(N5CCCCC5)cn3)C4)n[nH]c2c1
Could you kindly indicate whether a or b has the higher IC50 value? # reply format: chosen label
b

a: CCc1cc(O)c(F)cc1-c1ccc2c(-c3nc4c([nH]3)CN(C(=O)c3cnc(N5CCOCC5)cn3)C4)n[nH]c2c1
b: CCc1cc(O)c(F)cc1-c1ccc2c(-c3nc4c([nH]3)CN(Cc3cnccn3)C4)n[nH]c2c1
Kindly identify the item with the lower IC50 figure among these two: a and b # reply format: chosen label
a

====

- STUDY SYSTEM: UniProtKB P23458
- TEST DETAILS: JAK1 kinase ADP-Glo assay (Example 60)
READOUT: IC50 (nM)

// solved cases for IC50 follow
CCc1cc(O)c(F)cc1-c1ccc2c(-c3nc4c([nH]3)CN(C(=O)N3CCC(C#N)C3)C4)n[nH]c2c1 (centres unmarked) [MDI-250]: 0.395
CCc1cc(O)c(F)cc1-c1ccc2c(-c3nc4c([nH]3)CN(C(=O)N3CC[C@@H](O)C3)C4)n[nH]c2c1 [MDI-243]: 0.118

A: CCc1cc(O)c(F)cc1-c1ccc2c(-c3nc4c([nH]3)CN(C(=O)NC3CC3)C4)n[nH]c2c1 [MDI-259]
B: CCc1cc(O)c(F)cc1-c1ccc2c(-c3nc4c([nH]3)CN(C(=O)N3CCOCC3)C4)n[nH]c2c1 [MDI-234]
Kindly identify the item with the lower IC50 figure among these two: A and B # reply format: chosen label
B
(B: 0.206 nM, A: 0.659 nM)

====

- STUDY SYSTEM: JAK3 (Homo sapiens, UniProt P52333)
- TEST DETAILS: JAK3 kinase ADP-Glo assay (Example 59)
- Assay type: biochemical
- Design: purchased Invitrogen PV3855
- PROTOCOL CONDITIONS: JAK3 (Invitrogen) 0.5 nM, ATP 10 μM, Poly (4:1 Glu, Tyr) 0.03 mg/mL, 25° C. 60 min, read-out: IC50 (nM), JAK3 Experiment
- Sequence (P52333 781-1124 limits assumed): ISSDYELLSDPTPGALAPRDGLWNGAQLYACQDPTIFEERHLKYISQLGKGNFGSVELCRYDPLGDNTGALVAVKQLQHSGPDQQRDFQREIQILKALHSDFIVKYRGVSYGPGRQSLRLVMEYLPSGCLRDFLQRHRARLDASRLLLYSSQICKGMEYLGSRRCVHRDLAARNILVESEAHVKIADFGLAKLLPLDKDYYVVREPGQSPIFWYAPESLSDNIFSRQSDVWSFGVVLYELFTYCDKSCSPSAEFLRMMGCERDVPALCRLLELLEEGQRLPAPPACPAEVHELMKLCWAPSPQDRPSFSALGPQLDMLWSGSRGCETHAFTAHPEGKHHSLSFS
READOUT: IC50 (nM)

CCc1cc(O)c(F)cc1-c1ccc2c(-c3nc4c([nH]3)CN(C(=O)C3CCC3)C4)n[nH]c2c1 [MDI-211]: 0.16
CCc1cc(O)c(F)cc1-c1ccc2c(-c3nc4c([nH]3)CN(C(=O)c3cnc(N5CCOCC5)cn3)C4)n[nH]c2c1 [MDI-201]: 0.187
CCc1cc(O)c(F)cc1-c1ccc2c(-c3nc4c([nH]3)CN(Cc3cnccn3)C4)n[nH]c2c1 [MDI-207]: 0.132

====

- STUDY SYSTEM: TYK2 (Homo sapiens, UniProt P29597)
- TEST DETAILS: TYK2 kinase ADP-Glo assay (Example 60)
- Sequence (P29597 871-1187 limits assumed): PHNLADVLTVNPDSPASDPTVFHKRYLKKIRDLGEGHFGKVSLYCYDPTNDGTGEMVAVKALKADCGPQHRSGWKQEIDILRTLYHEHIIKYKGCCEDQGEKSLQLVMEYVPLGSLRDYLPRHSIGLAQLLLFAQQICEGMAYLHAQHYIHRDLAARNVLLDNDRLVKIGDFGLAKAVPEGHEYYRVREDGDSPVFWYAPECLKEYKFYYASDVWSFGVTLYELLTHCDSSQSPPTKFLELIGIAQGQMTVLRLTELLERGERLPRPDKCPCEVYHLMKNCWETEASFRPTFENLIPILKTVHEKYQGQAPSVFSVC
READOUT: IC50 (nM)

P: CCc1cc(O)c(F)cc1-c1ccc2c(-c3nc4c([nH]3)CN(C(=O)N3CCC(O)CC3)C4)n[nH]c2c1
Q: CCOC(=O)N1Cc2nc(-c3n[nH]c4cc(-c5cc(F)c(O)cc5CC)ccc34)[nH]c2C1
R: CCc1cc(O)c(F)cc1-c1cc2[nH]nc(-c3nc4c([nH]3)CN(C(=O)C3CC3)C4)c2cn1
S: CCc1cc(O)c(F)cc1-c1ccc2c(-c3nc4c([nH]3)CN(C(=O)CC(C)C)C4)n[nH]c2c1
Which order do the items above take when sorted by IC50 from high to low? Return value: ordered labels per request.
R, Q, S, P
